# Affinity ELISA CPE mutant ratio (1:3, pH 6.0/7.4) annotations
Target system: T1, Axl protein (human, UniProt P30530 26-451)
T1 construct: extracellular domain; also called human Axl; hAxl
T1 sequence (looked up): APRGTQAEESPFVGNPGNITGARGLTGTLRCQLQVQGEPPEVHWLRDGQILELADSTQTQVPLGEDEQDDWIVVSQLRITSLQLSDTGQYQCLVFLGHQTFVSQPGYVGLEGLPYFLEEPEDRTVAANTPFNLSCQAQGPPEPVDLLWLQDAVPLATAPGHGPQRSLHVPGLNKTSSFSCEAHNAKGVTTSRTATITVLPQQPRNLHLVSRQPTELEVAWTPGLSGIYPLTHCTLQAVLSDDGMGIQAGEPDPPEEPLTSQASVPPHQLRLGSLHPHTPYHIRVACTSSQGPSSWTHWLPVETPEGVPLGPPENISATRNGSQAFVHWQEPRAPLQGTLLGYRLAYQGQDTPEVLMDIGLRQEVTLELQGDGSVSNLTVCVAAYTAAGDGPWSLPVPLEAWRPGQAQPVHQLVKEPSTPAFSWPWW
Assay text: ELISA, 1:3 dilution, pH 6.0 over pH 7.4
I only need the number, in ratio, no unit after it.

Take a look at these entries with their results.
Binder	Numeric result
HC-M107F (antibody, V domains shown) VH: EVQLVQSGAEVKKPGATVKISCKVSGYSFTGHTMNWIRQPPGKGLEWIGLIKPSNGGTSYNQKFKGRVTISADKSISTAYLQWSSLKASDTAMYYCAHGHYESYFAFDYWGQGTLVTVSS VL: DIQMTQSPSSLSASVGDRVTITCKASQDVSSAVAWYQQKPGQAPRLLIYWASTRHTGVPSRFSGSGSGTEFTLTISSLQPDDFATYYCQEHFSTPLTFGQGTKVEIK	20.6
HC-H100W (antibody, V domains shown) VH: EVQLVQSGAEVKKPGATVKISCKVSGYSFTGHTMNWIRQPPGKGLEWIGLIKPSNGGTSYNQKFKGRVTISADKSISTAYLQWSSLKASDTAMYYCAHGWYESYFAMDYWGQGTLVTVSS VL: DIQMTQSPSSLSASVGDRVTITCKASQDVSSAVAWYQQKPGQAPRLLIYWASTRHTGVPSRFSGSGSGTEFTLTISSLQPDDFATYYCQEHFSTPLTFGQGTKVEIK	4.94
HC-H100P (antibody, V domains shown) VH: EVQLVQSGAEVKKPGATVKISCKVSGYSFTGHTMNWIRQPPGKGLEWIGLIKPSNGGTSYNQKFKGRVTISADKSISTAYLQWSSLKASDTAMYYCAHGPYESYFAMDYWGQGTLVTVSS VL: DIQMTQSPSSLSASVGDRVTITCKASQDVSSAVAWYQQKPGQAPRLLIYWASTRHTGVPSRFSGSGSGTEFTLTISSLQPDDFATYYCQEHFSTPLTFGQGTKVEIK	2.58
HC-H100R (antibody, V domains shown) VH: EVQLVQSGAEVKKPGATVKISCKVSGYSFTGHTMNWIRQPPGKGLEWIGLIKPSNGGTSYNQKFKGRVTISADKSISTAYLQWSSLKASDTAMYYCAHGRYESYFAMDYWGQGTLVTVSS VL: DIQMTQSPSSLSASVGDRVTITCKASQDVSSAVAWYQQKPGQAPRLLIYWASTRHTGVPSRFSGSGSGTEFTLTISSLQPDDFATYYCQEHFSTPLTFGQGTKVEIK	1.88

Let's switch to this binder now.
In plain terms, HC-E102I (antibody, V domains shown) VH: EVQLVQSGAEVKKPGATVKISCKVSGYSFTGHTMNWIRQPPGKGLEWIGLIKPSNGGTSYNQKFKGRVTISADKSISTAYLQWSSLKASDTAMYYCAHGHYISYFAMDYWGQGTLVTVSS VL: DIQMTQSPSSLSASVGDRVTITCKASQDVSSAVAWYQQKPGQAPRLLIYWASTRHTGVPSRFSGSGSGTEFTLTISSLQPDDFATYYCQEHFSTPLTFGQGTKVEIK has a documented Affinity ELISA CPE mutant ratio (1:3, pH 6.0/7.4) of 2.02

Hello, the source for this data is patent US20190177417A1, in case you need it.
